Value source: PubChem BioAssay AID2060497

Tested on: 317291-083-R-J1-PDC complex spheroids, viability;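 further: spheroids exposed to compounds for one week before readout; percent viability relative to DMSO vehicle wells taken as 100%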
Test: Anticancer human tumor 317291-083-R-J1-PDC patient-derived soft tissue sarcoma cell line growth inhibition [GQUAD]; active means viability on the fitted dose curve at most 10% of control; inactive means the rest
Settings: second compound 10 µM; first compound 1 µM
Outcomes you can answer with include only these: true (1) (active), false (0) (inactive)

Input line: Recorded call for COc1ccc([C@@H](O)c2cc(-c3ncnc4cc(N5CCOCC5)ccc34)c(F)cc2Cl)nn1 + Cc1cnc(CNC(=O)c2c(=O)c3ccc(N4CCCN(C)CC4)nc3n3c2sc2ccccc23)cn1 ?
Output line: false (0)

Input line: Outcome? O=c1[nH]cc(F)c(=O)[nH]1 + Cc1[nH]c2ccc(F)cc2c1-c1nc2c3cccnc3c3ncccc3c2[nH]1
Output line: false (0)

Input line: Recorded call for C=CCn1c(=O)c2cnc(Nc3ccc(N4CCN(C)CC4)cc3)nc2n1-c1cccc(C(C)(C)O)n1 + Cc1[nH]c2ccc(F)cc2c1-c1nc2c3cccnc3c3ncccc3c2[nH]1 ?
Output line: false (0)

Input line: Outcome logged for COc1cccc2c1C(=O)c1c(O)c3c(c(O)c1C2=O)CC(O)(C(=O)CO)CC3OC1CC(N)C(O)C(C)O1 (stereo not given) + CN(C)c1ccc(Nc2c3ccc(NC(=O)CCN4CCCC4)cc3nc3cc(NC(=O)CCN4CCCC4)ccc23)cc1 in this assay:
Output line: true (1)

Input line: Per the assay record, what outcome was assigned to COc1ncnc(C2CC2)c1-c1ncc2cnn(Cc3ccc(-c4nc(C(F)(F)F)cn4C(C)C)cc3)c2n1 + Cc1[nH]c2ccc(F)cc2c1-c1nc2c3cccnc3c3ncccc3c2[nH]1 ?
Output line: false (0)
